All figures here come from ChEMBL document CHEMBL4017535.

Overview of recorded log10 Ki for various compounds
Molecular target: Bromodomain-containing protein 4 (Homo sapiens, UniProt O60885)
Test: Binding affinity to human N-terminal His6-tagged BRD4 BD1-BD2 (K57 to K550 residues) after 1 hr using alexa-647 conjugated probe by TR-FRET assay
Remember, log10 of Ki, in nM.

Cn1cc(-c2cc(NS(C)(=O)=O)cnc2Oc2ccccc2)c2cc[nH]c2c1=O = 0.61

Exam item: Can you share its log10 Ki? I mean this compound: CCNC(=O)c1ccc(Oc2ccccc2)c(-c2cn(C)c(=O)c3[nH]ccc23)c1
Marked response: 1.51

Exam item: Can you share its log10 Ki? I mean this compound: CCS(=O)(=O)Nc1ccc(OC2CCN(C)CC2)c(-c2cn(C)c(=O)c3[nH]ccc23)c1
Marked response: 2.63

Exam item: Can you share its log10 Ki? I mean this compound: Cn1cc(-c2cc(NS(C)(=O)=O)ccc2OC2CCOCC2)c2cc[nH]c2c1=O
Marked response: 1.83

Exam item: Can you share its log10 Ki? I mean this compound: Cn1cc(-c2ccccc2Oc2ccccc2)cc(N)c1=O
Marked response: 3.48

Exam item: Can you share its log10 Ki? I mean this compound: CCS(=O)(=O)Nc1ccc(Oc2ccc(Cl)cc2)c(-c2cn(C)c(=O)c3[nH]ccc23)c1
Marked response: 0.53

Exam item: Can you share its log10 Ki? I mean this compound: CCS(=O)(=O)Nc1ccc(Oc2ccc(C#N)cc2)c(-c2cn(C)c(=O)c3[nH]ccc23)c1
Marked response: 0.97

Exam item: Can you share its log10 Ki? I mean this compound: Cn1cc(-c2cc(S(N)(=O)=O)ccc2Oc2ccccc2)c2cc[nH]c2c1=O
Marked response: 0.56

Exam item: Can you share its log10 Ki? I mean this compound: CCS(=O)(=O)Nc1ccc(Oc2c(F)cc(F)cc2F)c(-c2cn(C)c(=O)c3[nH]ccc23)c1
Marked response: 1.08
